Data credit: patent US20020132812A1

Listed below: melting point values for each entry.
Where a name gives a salt, the structure may show the parent alone.

Field: example entries. Status: answers known.
{"columns": ["compound", "melting point"],
 "data": [
  ["C(/C1=NCCN1)=C(/c1cccc(C2OCCO2)c1)c1ccccn1 (as salt: fumarate)", "98 to 98.5 °C"],
  ["c1ccc(C(CC2=NCCN2)c2cccc3c2OCC3)nc1 (stereo not shown) (as salt: fumarate)", "166 to 167 °C"],
  ["Nc1cc2c(c(C(CC3=NCCN3)c3ccccn3)c1)OCC2 (stereo not shown)", "143 to 144 °C"]
]}

q: GET /values?readout=melting point&item= Oc1cc2c(c(C(CC3=NCCN3)c3ccccn3)c1)OCC2 (stereo not shown) (as salt: hydroiodid)
a: 186 to 187 °C

q: Param item = O=Cc1cccc(C(CC2=NCCN2)c2ccccn2)c1 (stereo not shown) (as salt: fumarate) ; retrieve measured melting point.
a: 138 to 139 °C

q: Any idea what its melting point is? The compound is OCc1cccc(C(CC2=NCCN2)c2ccccn2)c1 (stereo not shown) (as salt: fumarate)
a: 114 to 115 °C

q: Quick check: melting point of c1ccc(C(CC2=NCCN2)c2cccc(C3OCCO3)c2)nc1 (stereo not shown) (as salt: fumarate) ?
a: 162 to 162.5 °C

q: # query: melting point of entry Nc1cccc(C(CC2=NCCN2)c2ccccn2)c1 (stereo not shown) (as salt: fumarate)
a: 154 to 155 °C

q: For the compound shown here, FC(F)(F)c1cccc(/C(=C/C2=NCCN2)c2ccc3ccccc3n2)c1 , give the reported melting point.
a: 76.5 °C

q: Given the compound FC(F)(F)c1cccc(C(CC2=NCCN2)c2ccc3ccccc3n2)c1 (stereo not shown) , what is its reported melting point?
a: 92 to 93 °C
